biological target: Bacillus anthracis DHFR (Bacillus anthracis, UniProt Q81R22)
Sequence (Q81R22 1-162): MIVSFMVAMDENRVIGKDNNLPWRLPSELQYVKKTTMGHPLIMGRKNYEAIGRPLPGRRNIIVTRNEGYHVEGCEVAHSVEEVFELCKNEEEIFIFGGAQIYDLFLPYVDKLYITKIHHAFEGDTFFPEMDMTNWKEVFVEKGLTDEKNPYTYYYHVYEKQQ
metric: IC50

stdin: Query: IC50; subject: COc1cc(Cc2cnc(N)nc2N)cc(/C=C/C(=O)N2N=Cc3ccccc3C2C2CCCCC2)c1OC (stereo not drawn)
stdout: 260 nM

stdin: Now consider CCCCC1c2ccccc2C=NN1C(=O)/C=C/c1cc(Cc2cnc(N)nc2N)cc(OC)c1OC (stereo not drawn) .
stdout: 170 nM

stdin: Try the compound COc1cc(Cc2cnc(N)nc2N)cc(/C=C/C(=O)N2N=Cc3ccccc3C2C2CCCC2)c1OC (stereo not drawn)
stdout: 200 nM

stdin: Proceed to COc1cc(Cc2cnc(N)nc2N)cc(/C=C/C(=O)N2N=Cc3ccccc3C2c2ccccc2)c1OC.CS(=O)(=O)O (stereo not drawn)
stdout: 46 nM

stdin: Next entry: CCCC1c2ccccc2C=NN1C(=O)/C=C/c1cc(Cc2cnc(N)nc2N)cc(OC)c1OC (stereo not drawn)
stdout: 54 nM

stdin: Another: COc1cc(Cc2cnc(N)nc2N)cc(/C=C/C(=O)N2N=Cc3ccccc3C2c2ccccc2)c1OCCN1CCOCC1 (stereo not drawn)
stdout: 170 nM
